- Study Target: other members of the PDE family (Homo sapiens, UniProt Q13946)
- Sequence (Q13946 whole entry): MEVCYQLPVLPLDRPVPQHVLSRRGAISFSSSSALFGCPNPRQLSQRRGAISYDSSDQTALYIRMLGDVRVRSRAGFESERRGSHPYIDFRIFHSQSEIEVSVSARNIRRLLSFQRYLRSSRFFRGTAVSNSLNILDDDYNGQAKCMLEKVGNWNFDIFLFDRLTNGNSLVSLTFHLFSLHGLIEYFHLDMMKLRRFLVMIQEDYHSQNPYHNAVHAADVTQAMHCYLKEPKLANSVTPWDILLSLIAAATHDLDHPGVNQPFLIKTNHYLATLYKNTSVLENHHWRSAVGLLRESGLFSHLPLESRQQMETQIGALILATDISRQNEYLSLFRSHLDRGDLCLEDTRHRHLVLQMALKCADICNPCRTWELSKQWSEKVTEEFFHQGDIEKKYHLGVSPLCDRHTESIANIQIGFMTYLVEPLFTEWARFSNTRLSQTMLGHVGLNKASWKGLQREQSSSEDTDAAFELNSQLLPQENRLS
- Protocol Description: In vitro PDE selectivity assay (SPA), other members of the PDE family (protocols in Table A)
- Type: biochemical
- Measurement Parameters: hPDE7A1; read-out: PDE 7A (expressed as pIC50) (converted)
Recorded Endpoint: IC50 (µM)

[I] Cc1nc2c(N3CCOCC3)cc(Cl)nn2c1-c1cnn(CC(F)(F)F)c1
[II] Cc1nc2c(-c3ccncc3)ccnn2c1-c1cnn(CC(C)C)c1
From the recorded data, which exceeds the other in IC50: I or II ? Provide the label of your selected option as the answer.
I

----------
- Study Target: other members of the PDE family (Homo sapiens, UniProt O00408)
- Sequence (O00408 whole entry): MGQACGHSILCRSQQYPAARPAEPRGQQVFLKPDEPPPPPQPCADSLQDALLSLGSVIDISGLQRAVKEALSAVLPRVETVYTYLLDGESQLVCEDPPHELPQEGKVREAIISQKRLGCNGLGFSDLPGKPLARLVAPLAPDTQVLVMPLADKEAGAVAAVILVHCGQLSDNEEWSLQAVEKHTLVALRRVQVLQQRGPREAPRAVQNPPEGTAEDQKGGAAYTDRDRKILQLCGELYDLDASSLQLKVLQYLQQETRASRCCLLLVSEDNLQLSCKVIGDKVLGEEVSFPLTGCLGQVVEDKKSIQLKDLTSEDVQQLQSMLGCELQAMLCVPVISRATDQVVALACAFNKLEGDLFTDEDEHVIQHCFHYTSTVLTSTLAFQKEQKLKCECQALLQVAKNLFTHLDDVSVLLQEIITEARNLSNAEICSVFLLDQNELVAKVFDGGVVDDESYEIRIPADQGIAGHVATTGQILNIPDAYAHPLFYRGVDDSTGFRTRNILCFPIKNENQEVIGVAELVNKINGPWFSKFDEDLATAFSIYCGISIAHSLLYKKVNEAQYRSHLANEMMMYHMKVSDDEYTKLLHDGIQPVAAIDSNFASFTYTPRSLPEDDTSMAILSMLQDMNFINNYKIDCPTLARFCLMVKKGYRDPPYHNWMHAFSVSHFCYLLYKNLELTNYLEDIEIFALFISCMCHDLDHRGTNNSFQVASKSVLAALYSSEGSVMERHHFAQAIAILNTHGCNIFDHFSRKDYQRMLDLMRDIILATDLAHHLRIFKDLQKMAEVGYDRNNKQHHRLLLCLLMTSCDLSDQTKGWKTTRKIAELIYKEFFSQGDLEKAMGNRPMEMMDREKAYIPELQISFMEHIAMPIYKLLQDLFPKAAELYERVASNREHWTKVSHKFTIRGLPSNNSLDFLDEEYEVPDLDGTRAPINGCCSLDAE
- Protocol Description: In vitro PDE selectivity assay (SPA), other members of the PDE family (protocols in Table A)
- Type: biochemical
- Measurement Parameters: hPDE2A; read-out: PDE 2A (expressed as pIC50) (converted)
Recorded Endpoint: IC50 (µM)

Guide cases for IC50, answers given:
COC(C)(C)Cn1cc(-c2c(C)nc3c(N4CCOCC4)ccnn23)cn1 | 53.7
COCCc1ccc(-c2c(C)nc3c(N4CCOCC4)ccnn23)cn1 | 39.8
CCc1ccc(-c2c(C)nc3c(N4CCOCC4)ccnn23)cn1 | 26.9
COC(C)(C)Cn1cc(-c2c(C3CC3)nc3c(-c4ccncc4)ccnn23)cn1 | 3.98

[I] Cc1cc(-c2ccncc2)c2nc(C3CC3)c(-c3ccc(N4CCOCC4)nc3)n2n1
[II] Cc1nc2c(-c3ccncc3)ccnn2c1-c1cnn(CC(C)C)c1
Sorting by IC50 in descending order, would I or II appear first? Select an item and report its label.
II

----------
// values below are reported IC50
- Study Target: other members of the PDE family (Homo sapiens, UniProt O00408)
- Protocol Description: In vitro PDE selectivity assay (SPA), other members of the PDE family (protocols in Table A)
- Type: biochemical
- Measurement Parameters: hPDE2A; read-out: PDE 2A (expressed as pIC50) (converted)

See these solved cases before continuing.
COC(C)(C)Cc1ccc(-c2c(C)nc3c(-c4ccncc4)cc(C)nn23)cn1 [compound 48] | > 10 µM
Cc1nc2c(N3CCOCC3)ccnn2c1-c1ccc(C2CC2)nc1 [compound 33] | > 10 µM
c1cc(-c2ccnn3c(-c4ccc(N5CCOCC5)nc4)cnc23)ccn1 [compound 61] | 7.94 µM
Cc1nc2c(N3CCOCC3)ccnn2c1-c1cnn(CC2CC2(F)F)c1 (centres unmarked) [compound 118] | > 10 µM

# evaluate next
For the compound COCCOc1ccc(-c2c(C)nc3c(N4CCOCC4)ccnn23)cn1 [compound 16] , what IC50 is on record?
> 10 µM

----------
- Study Target: PDE4D3 (Homo sapiens, UniProt Q08499)
- Sequence (Q08499 1-673 isoform Q08499-2): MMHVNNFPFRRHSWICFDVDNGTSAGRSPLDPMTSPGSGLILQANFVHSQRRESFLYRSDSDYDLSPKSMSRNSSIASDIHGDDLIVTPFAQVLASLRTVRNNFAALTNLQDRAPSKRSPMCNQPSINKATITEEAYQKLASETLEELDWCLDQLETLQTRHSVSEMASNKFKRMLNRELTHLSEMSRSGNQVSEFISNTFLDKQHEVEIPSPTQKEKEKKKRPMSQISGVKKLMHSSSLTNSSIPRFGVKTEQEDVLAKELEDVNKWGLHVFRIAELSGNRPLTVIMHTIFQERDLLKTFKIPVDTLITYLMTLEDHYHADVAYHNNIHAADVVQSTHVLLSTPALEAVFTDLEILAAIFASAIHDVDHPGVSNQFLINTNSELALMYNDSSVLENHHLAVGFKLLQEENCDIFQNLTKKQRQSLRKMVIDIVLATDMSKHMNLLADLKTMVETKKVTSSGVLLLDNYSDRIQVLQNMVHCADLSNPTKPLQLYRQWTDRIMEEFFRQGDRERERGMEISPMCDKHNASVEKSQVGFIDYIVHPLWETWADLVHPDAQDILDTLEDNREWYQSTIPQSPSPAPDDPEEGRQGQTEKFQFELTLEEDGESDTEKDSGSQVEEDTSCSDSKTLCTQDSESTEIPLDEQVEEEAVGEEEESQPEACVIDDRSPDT
- Protocol Description: In vitro PDE selectivity assay (SPA), PDE4D3
- Type: biochemical
- Measurement Parameters: hPDE4D3; read-out: PDE 4D3 (expressed as pIC50) (converted)
Recorded Endpoint: IC50 (µM)

Below, 4 molecules whose answers are already recorded.
COC(C)(C)Cn1cc(-c2c(C)nc3c(N4CCOCC4)ccnn23)cn1 [compound 37] | 30.9
COCCn1cc(-c2c(C3CC3)nc3c(-c4ccncc4)ccnn23)cn1 [compound 142] | 2.82
CC(C)Cn1cc(-c2c(C3CC3)nc3c(-c4ccncc4)ccnn23)cn1 [compound 148] | 2.57
Cc1nc2c(-c3ccncc3)ccnn2c1-c1cnn(CC(C)C)c1 [compound 124] | 7.41

[1] COCCn1cc(-c2c(C)nc3c(-c4ccncc4)cc(Cl)nn23)cn1 [compound 147]
[2] COCCn1cc(-c2c(C)nc3c(-c4ccncc4)cc(C)nn23)cn1 [compound 134]
Identify the entry with the larger IC50. Options: 1 and 2 Kindly give the label for the entry you pick.
2
